test system: MYLK4; conditions: concentration: 1 μM, replicates: in singlicate; n = 1;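 also: KINOMEscan kinase panel screen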
parameter: %Inh (%)
Please reply with the bare figure in % and do not write the unit itself.

In the examples that follow, each entry is paired with its recorded %Inh.
>>> measurement("COC(=O)c1c(-c2ccccc2)c2cc(C)ccc2c(=O)n1Cc1ccccc1")
0
>>> measurement("COc1cc2nccc(Nc3cccc(Oc4ccccc4)c3)c2cc1OC.Cl")
0
>>> measurement("Cl.NS(=O)(=O)c1cccc(Nc2cc(-c3ccc(F)cc3)n[nH]2)c1")
12

In one line, give reported %Inh of the entry "Nc1n[nH]c2ncc(-c3ccccc3)cc12" .
61

Tell me measured %Inh for "COc1cccc(-n2cnc3c(N)ncnc32)c1" please.
26

====

test system: BRK; construct: gene PTK6; conditions: concentration: 1 μM, replicates: in singlicate; n = 1
parameter: %Inh (%)
Express the result in % but write the number alone.

A selection of reference data follows.
>>> measurement("COc1ccc(CNC(=O)NC2CCN(c3ccnc(Nc4ccc(F)cc4)n3)C2)cc1 (stereo not shown)")
21
>>> measurement("CCCC(=O)Nc1n[nH]c2ncc(-c3cccc4ccccc34)cc12")
0
>>> measurement("COc1cccc(C2=C(N(C)c3ccccc3)C(=O)NC2=O)c1")
15
>>> measurement("Cc1ccccc1COc1cc(-n2cnc3cc(Cl)ccc32)sc1C(N)=O")
0
>>> measurement("CCS(=O)(=O)c1ccc(OC)c(Nc2ncc(-c3ccc(F)cc3)o2)c1.Cl")
0
>>> measurement("CN(C)c1cc(-c2ccc3c(N)n[nH]c3c2)nc(N)n1")
0

Supply recorded %Inh for "COc1ccc(-c2cc3c(C)nc(N)nc3n([C@H]3CC[C@H](O)CC3)c2=O)cn1" here.
0

Recall and state the measured %Inh for "COc1ccc(-c2coc3ccc(-c4nnc(SCc5cccc(C#N)c5)o4)cc23)cc1" .
10

For the compound "Cc1c(Cn2c(C)nn3c(=O)cc(N4CCO[C@H](C)C4)nc23)cccc1C(F)(F)F" , report %Inh.
32

====

test system: CDKL5; conditions: concentration: 1 μM, replicates: in singlicate; n = 1
Item-by-item account of %Inh
Give the quantity in %, number only.

Solved entries:
>>> measurement("COc1cccc(-n2cnc3c(N)ncnc32)c1")
14
>>> measurement("CN1C(=O)C(Nc2cc(Cl)c(O)c(Cl)c2)=C(c2ccc(Cl)cc2)C1=O")
0
>>> measurement("CC(C)(C)c1ccc(C(=O)Nc2cn3cc(-c4ccccc4)ccc3n2)cc1")
0
>>> measurement("Fc1cccc(CSc2nnc(-c3ccc4c(c3)CCO4)o2)c1")
16

Okay, now this molecule:
Find the measured %Inh of COc1ccc(CNC(=O)NC2CCN(c3ccnc(Nc4ccc(F)cc4)n3)C2)cc1 (centres unmarked) and report it.
0

====

test system: PRKG1; conditions: concentration: 1 μM, replicates: in singlicate; n = 1
parameter: %Inh (%)
Return type: number; implicit unit %.

>>> measurement("COc1cc(Nc2nccc(N3CCC(NC(=O)C(C)c4ccc(Cl)cc4)C3)n2)cc(OC)c1OC (centres unmarked)")
1
>>> measurement("Cc1ccc(-c2ccc3c(ccc4sc5c(c43)NC[C@@H](C)N=C5N(C)C)n2)cn1")
0
>>> measurement("COc1cccc(C2=C(Nc3cccc(C(=O)O)c3)C(=O)NC2=O)c1")
0
>>> measurement("Nc1nccc2scc(-c3ccc4c(c3)CCN4C(=O)Cc3ccccc3)c12")
10

Let us examine a further case.
// Input: "COc1cc2nccc(Nc3ccc(OCc4ccc(NC(C)=O)cc4)cc3)c2cc1OC.Cl" . Output its %Inh only.
10

====

Each entry below carries its reported %Inh.
system: MLCK; construct: gene MYLK3; details: concentration: 1 μM, replicates: in singlicate; n = 1
Reply with just the number (in %).

Here is how some molecules turned out for %Inh.
>>> measurement("O=C(NCc1cccs1)c1cc(C(=O)c2c(Cl)cccc2Cl)c[nH]1")
0
>>> measurement("Nc1n[nH]c2ncc(-c3ccccc3)cc12")
0
>>> measurement("Cc1ccc(Oc2ccc(Nc3ncnc4cc[nH]c34)cc2C)cn1")
0

Retrieve %Inh on MLCK; query "COC(=O)c1c(-c2ccccc2)c2cc(Br)ccc2c(=O)n1Cc1ccc(NC(=O)CCC(=O)O)cc1"
0

Provide measured %Inh on MLCK for "CCC(=O)c1c(-c2ccccc2)c2cc(Cl)ccc2c(=O)n1Cc1cc(S(C)(=O)=O)n(CC(N)=O)n1" please.
0

Fill in %Inh for "CN(C)c1cc(-c2ccc3c(N)n[nH]c3c2)nc(N)n1" tested with MLCK.
0

Using MLCK as the test system, report measured %Inh of "CCC(=O)c1c(-c2ccccc2)c2cc(Cl)ccc2c(=O)n1Cc1cc(S(C)(=O)=O)n(CC(F)F)n1" .
0

Name the recorded %Inh of "COc1ccc(-c2cc3c(C)nc(N)nc3n([C@H]3CC[C@H](OCCO)CC3)c2=O)cn1" , assay system MLCK.
17

# return %Inh of COc1ccc(Nc2nccc(N3CCC(NS(=O)(=O)c4ccc(NC(C)=O)cc4)C3)n2)cc1 (stereo not shown) (system: MLCK)
0

Jot down %Inh (MLCK) of "CCS(=O)(=O)c1ccc(OC)c(Nc2ncc(-c3ccc(F)cc3)o2)c1.Cl" .
0

Given "O=c1cc(N2CCOCC2)nc2n(Cc3ccc(F)c(Cl)c3)ccn12" , report its %Inh on MLCK.
7

====

tested on: ADCK4; details: concentration: 1 μM, replicates: in singlicate; n = 1
Quick list: %Inh per entry.
Field format: number, assumed %, no unit text.

Return %Inh for the following compound: "COc1ccc(-c2cc3c(C)nc(N)nc3n([C@H]3CC[C@H](O)CC3)c2=O)cn1"
0

Please give the documented %Inh of "OCCCNc1nccc(-c2c(-c3cccc(C(F)(F)F)c3)nn3cc(C(F)(F)F)ccc23)n1"
43

Tell me %Inh reported for COc1cc(Nc2nccc(N3CCC(NC(=O)C4COc5ccccc5O4)C3)n2)cc(OC)c1OC (centres unmarked)
65

Give recorded %Inh. "COC(=O)c1c(-c2ccccc2)c2cc(C)ccc2c(=O)n1Cc1ccccc1"
0

Identify measured %Inh corresponding to "Cc1ccc(-c2ccc3c(ccc4sc5c(c43)NC[C@@H](C)N=C5N(C)C)n2)cn1"
0

Give a short answer stating reported %Inh for "CN(C)c1cc(-c2ccc3c(N)n[nH]c3c2)nc(N)n1" .
23

Look up %Inh of "COc1cc2ncn(-c3cc(OCc4ccc(S(C)(=O)=O)cc4)c(C(N)=O)s3)c2cc1OC" and report it.
0

Provide one value: measured %Inh of "COc1cc2nccc(Nc3cccc(Oc4ccccc4)c3)c2cc1OC.Cl"
22

====

The following compounds are shown together with reported %Inh values.
system: ACVR1B; settings: concentration: 1 μM, replicates: in singlicate; n = 1
Provide a numeric answer, followed by its unit.

>>> measurement("COc1cccc(C2=C(Nc3cccc(C(=O)O)c3)C(=O)NC2=O)c1")
"18%"

Item "Fc1cccc(CSc2nnc(-c3ccc4c(c3)CCO4)o2)c1" : provide %Inh
17%

Quote %Inh reported for "COc1cc2ncn(-c3cc(OCc4ccncc4)c(C(N)=O)s3)c2cc1OC" please.
0%

====

test system: NEK10; settings: concentration: 1 μM, replicates: in singlicate; n = 1
parameter: %Inh (%)
Respond with the bare value in %.

>>> measurement("Cc1nnc(-c2ccc3ncn(-c4ccc(S(C)=O)cc4)c3c2)o1 (centres unmarked)")
2
>>> measurement("CN1C(=O)C(Nc2cc(Cl)c(O)c(Cl)c2)=C(c2ccc(Cl)cc2)C1=O [SB-404321]")
0
>>> measurement("Nc1ncnc2c1ncn2-c1cccc2ccccc12 [SKF-97184]")
0

Supply measured %Inh of "CCC(=O)c1c(-c2ccccc2)c2cc(Cl)ccc2c(=O)n1Cc1ccc(C(=O)O)cc1" in your reply.
0

Return reported %Inh. Input molecule: CCCC(=O)Nc1n[nH]c2ncc(-c3cccc4ccccc34)cc12 [SB-642057]
100

====

test system: AMPK-alpha1; construct: gene PRKAA1; settings: concentration: 1 μM, replicates: in singlicate; n = 1
Recorded %Inh by entry
Your answer should be a plain number; it is taken to be in %.

>>> measurement("CCC(=O)c1c(-c2ccccc2)c2cc(Cl)ccc2c(=O)n1Cc1cc(C(=O)NC2CC2)n(C)n1")
22
>>> measurement("COc1cc2ncn(-c3cc(OCCCc4ccccc4)c(C(N)=O)s3)c2cc1OC [GSK205189]")
28
>>> measurement("O=C(NCCNc1ccnc(Nc2ccc(F)cc2)n1)Nc1ccc2c(c1)OCO2 [GSK1379882]")
0
>>> measurement("Cc1cc(Nc2nc(-c3cccc(C)n3)nc3ccccc23)ccn1 [GW872411]")
0
>>> measurement("Cc1ccc(Oc2ccc(Nc3ncnc4cc[nH]c34)cc2C)cn1")
0
>>> measurement("Cc1nnc(-c2ccc(C)c(-c3ccc(C(=O)O)cc3)c2)o1 [GW608005]")
0
>>> measurement("COc1ccc(-c2coc3ccc(-c4nnc(SCc5cccc(C#N)c5)o4)cc23)cc1")
7
>>> measurement("CN1C(=O)C(Nc2ccccc2)=C(c2ccccc2)C1=O [SB-300079]")
0
>>> measurement("O=C1NC(=O)C(c2ccccc2)=C1Nc1cccc(O)c1 [SB-390534]")
0
>>> measurement("COc1cccc(C2=C(N(C)c3ccccc3)C(=O)NC2=O)c1 [SB-334865]")
6

Read the entry "Fc1cccc(CSc2nnc(-c3ccc4c(c3)CCO4)o2)c1" and write its reported %Inh.
13

Answer with the recorded %Inh of O=C(Nc1n[nH]c2nc(-c3ccccc3)c(Br)cc12)C1CC1 [SB-708998] only.
12

Given "Cc1nc(N(C)[C@H]2CN(C(=O)CC#N)CC[C@H]2C)c2cc[nH]c2n1" , respond with its %Inh.
0

Query %Inh for CCn1c(-c2nonc2N)nc2ccccc21 [SB-693162/GW549034]
7

Answer with reported %Inh of COc1cc2ncn(-c3cc(OCc4ccncc4)c(C(N)=O)s3)c2cc1OC [GSK336313]
0

Output measured %Inh for this item: COc1cc2nccc(Nc3ccc(OCc4ccc(NC(C)=O)cc4)cc3)c2cc1OC.Cl [GW440135]
15

Assign %Inh to the following record: "COC(=O)c1c(-c2ccccc2)c2cc(Br)ccc2c(=O)n1Cc1ccc(NC(=O)CCC(=O)O)cc1"
21

Give %Inh for the following compound: COc1cc2nccc(Nc3cccc(Oc4ccccc4)c3)c2cc1OC.Cl [GW284543]
12

Provide one value: measured %Inh of Nc1nc(-c2ccccc2F)c(-c2ccnc3ccccc23)s1 [GW560459]
0

Please give measured %Inh of the following entry: COc1cc2ncn(-c3cc(OCc4ccncc4Br)c(C(N)=O)s3)c2cc1OC [GW854278]
7

Provide %Inh value for the following compound: "CCC(=O)c1c(-c2ccccc2)c2cc(Cl)ccc2c(=O)n1Cc1cc(S(C)(=O)=O)n(CC(N)=O)n1"
0

Return %Inh (reported value) for this compound: Nc1ncnc2c1ncn2-c1ccc(Cl)cc1 [AH2635]
0

Report measured %Inh; entry is Cc1cccc(-c2nc(Nc3ccc4c(cnn4C)c3)c3ccccc3n2)n1 [GW876731]
0

For the compound "COc1ccc(-c2cc3c(C)nc(N)nc3n([C@H]3CC[C@H](OCCO)CC3)c2=O)cn1" , give its measured %Inh value.
5

State its %Inh for this compound: "CC(C)(C)c1ccc(C(=O)Nc2cn3cc(-c4ccccc4)ccc3n2)cc1"
0

Report %Inh, nothing else, for this compound: O=C(Nc1n[nH]c2cc(-c3ccccc3F)ccc12)C1CC1 [SB-733371]
0
